Assay: Oral bioavailability in Sprague-Dawley rat at 30 mg/kg
Type: ADME, organism-based
Settings: in vivo
ASSAY ENDPOINT: bioavailability (%)
A number alone suffices; assume %.

Memo: `CCN(CCn1ccc(-c2ccc(F)cn2)n1)C(=O)c1cc(C)ccc1-c1ncccn1` , reported bioavailability: 4.62

* * *

Overview of reported half-life across a group of molecules:
Assay: Half life in dog at 0.5 mg/kg, iv
Assay type: ADME, organism-based, Canis lupus familiaris
Design: dose 0.5 mg/kg, route intravenous
Settings: in vivo
A number alone suffices; assume h.

CCN(CCn1ccc(-c2ccc(F)cn2)n1)C(=O)c1ccccc1-n1nccn1 = 0.962

Memo: `CCN(CCn1ccc(-c2ccc(F)cn2)n1)C(=O)c1cc(C)ccc1-c1ncccn1` , reported half-life: 1.13

* * *

Assay: Ratio of drug level in brain to plasma in Sprague-Dawley rat at 10 mg/kg, po
Conditions: read-out: BPR
ASSAY ENDPOINT: Kp

Memo: `CCN(CCn1ccc(-c2ccc(F)cn2)n1)C(=O)c1ccccc1-n1nccn1` , reported Kp: 0.17

* * *

Experiment: Drug excretion in rat urine
Assay type: ADME
Settings: read-out: Drug excretion
ASSAY ENDPOINT: dose excreted (%)
A number alone suffices; assume %.

Memo: `CCN(CCn1ccc(-c2ccc(F)cn2)n1)C(=O)c1ccccc1-n1nccn1` , reported dose excreted: 0.4

* * *

Assay: Drug metabolism in human liver microsomes at 5 uM after 15 mins
Format: ADME
Conditions: read-out: Drug metabolism
ASSAY ENDPOINT: metabolised at 0.25 h, 5 µM (%)
A number alone suffices; assume %.

Past entries and their recorded results:
CCN(CCn1ccc(-c2ccc(F)cn2)n1)C(=O)c1cc(F)ccc1-n1nccn1 = 35.3
CCN(CCn1ccc(-c2ccc(F)cn2)n1)C(=O)c1cc(Cl)ccc1-n1nccn1 = 46.9
CCN(CCn1ccc(-c2ccc(F)cn2)n1)C(=O)c1ccccc1-n1nccn1 = 24.1
CCN(CCn1ccc(-c2ccc(F)cn2)n1)C(=O)c1cc(C)ccc1-c1ncccn1 = 19.7

Memo: `CCN(CCn1ccc(-c2ccc(F)cn2)n1)C(=O)c1cc(C)ccc1-n1nccn1` , reported metabolised at 0.25 h, 5 µM: 35

* * *

Assay: Oral bioavailability in Sprague-Dawley rat at 10 mg/kg
Assay type: ADME, organism-based
Conditions: in vivo
ASSAY ENDPOINT: bioavailability (%)
A number alone suffices; assume %.

Memo: `CCN(CCn1ccc(-c2ccc(F)cn2)n1)C(=O)c1ccccc1-n1nccn1` , reported bioavailability: 14.9

* * *

Test: Clearance in dog at 0.5 mg/kg, iv
Format: ADME, organism-based, Canis lupus familiaris
Design: dose 0.5 mg/kg, route intravenous
Settings: in vivo
ASSAY ENDPOINT: clearance
Just so you know, I need the unit written after the number.

CCN(CCn1ccc(-c2ccc(F)cn2)n1)C(=O)c1cc(C)ccc1-c1ncccn1 = 13.1 mL/min/kg

Turning now to a further compound:
Memo: `CCN(CCn1ccc(-c2ccc(F)cn2)n1)C(=O)c1ccccc1-n1nccn1` , reported clearance: 9.97 mL/min/kg

* * *

Experiment: Tmax in dog at 3 mg/kg, po
Type: ADME, organism-based, Canis lupus familiaris
Design: dose 3 mg/kg, route oral
Conditions: in vivo
Overview of reported Tmax across a group of molecules:
A number alone suffices; assume min.

CCN(CCn1ccc(-c2ccc(F)cn2)n1)C(=O)c1ccccc1-n1nccn1 = 40

Turning now to a further molecule:
Memo: `CCN(CCn1ccc(-c2ccc(F)cn2)n1)C(=O)c1cc(C)ccc1-c1ncccn1` , reported Tmax: 30

* * *

Assay: Half life in human
Assay type: ADME, organism-based
Conditions: in vivo
Overview of reported half-life across a group of molecules:
Just so you know, I need the unit written after the number.

Cc1ccc(-n2nccn2)c(C(=O)N2CCN(c3nc4cc(Cl)ccc4o3)CC[C@H]2C)c1 = 9 h

Turning now to a further molecule:
Memo: `Cc1nc(C(=O)N2CCCC[C@H]2CNC(=O)c2cccc3occc23)c(-c2ccc(F)cc2)s1` , reported half-life: 3.4 h

* * *

Assay: Drug metabolism in dog liver microsomes at 5 uM after 15 mins
Assay type: ADME, Canis lupus familiaris
Details: read-out: Drug metabolism
Overview of reported metabolised at 0.25 h, 5 µM across a group of compounds:
A number alone suffices; assume %.

CCN(CCn1ccc(-c2ccc(F)cn2)n1)C(=O)c1cc(C)ccc1-c1ncccn1 = 10.1

Turning now to a further compound:
Memo: `CCN(CCn1ccc(-c2ccc(F)cn2)n1)C(=O)c1ccccc1-n1nccn1` , reported metabolised at 0.25 h, 5 µM: 7.3
